Recorded values, source paper PMC7803741.

# target: T1, GABARAPL1 (mouse, UniProt Q8R3R8 1-117)
# T1 construct: GABARAPL1, mouse, UniProt Q8R3R8; also called GABARAPL1 WT; source: E. coli BL21 (DE3), purified (nickel-NTA, size exclusion)
# T1 sequence (Q8R3R8 whole entry): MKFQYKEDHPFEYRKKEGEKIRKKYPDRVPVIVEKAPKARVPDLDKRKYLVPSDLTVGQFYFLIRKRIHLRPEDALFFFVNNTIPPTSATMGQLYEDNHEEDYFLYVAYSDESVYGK
# protocol_summary: ITC; VP-ITC at 25 °C; 50 mM Tris pH 7.8, 100 mM NaCl, 1 mM EDTA, 1 mM DTT; γ2 subunit protein or peptide (100-200 μM) injected into GABARAP, GABARAPL1 or AP2 (10-20 μM) in the cell; one-site binding model
# condition_set: both partners purified
property_label: pKd
Give bare numbers, as −log10 of the molar value.

# input What measured pKd goes with ERDEEYGYECLDGKDCAS (also called γ2-GIM; source: E. coli BL21 (DE3), purified (nickel-NTA, size exclusion)) [GABAA receptor γ2 subunit GIM (GABARAP interacting motif, 398-415)] ?
# output 5.24
